Biological target: UniProt:P06493
Sequence (P06493 whole entry): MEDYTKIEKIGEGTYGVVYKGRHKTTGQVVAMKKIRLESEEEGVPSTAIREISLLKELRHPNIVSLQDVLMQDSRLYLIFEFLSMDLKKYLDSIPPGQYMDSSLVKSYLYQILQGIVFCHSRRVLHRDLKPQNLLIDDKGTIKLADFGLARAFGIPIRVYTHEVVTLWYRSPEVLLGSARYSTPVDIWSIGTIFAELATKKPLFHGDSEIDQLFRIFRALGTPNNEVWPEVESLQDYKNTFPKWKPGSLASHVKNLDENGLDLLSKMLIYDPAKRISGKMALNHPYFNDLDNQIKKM
Experiment: Inhibition of human recombinant CDK1 using histone H1 as substrate and [gamma33P]-ATP after 15 mins by scintillation counting
metric: IC50

(Q) Indicate its recorded IC50; the compound in question is C/C(=C\C=C\C(C)CC/C=C(\C)C[C@H]1OC(=O)C(C)C1=O)CCCc1ccoc1 (stereo partly specified) [PALINURIN]
(A) < 100 µM

====

Molecular target: Cyclin-dependent kinase 5 (Homo sapiens, UniProt Q00535)
Sequence (Q00535 whole entry): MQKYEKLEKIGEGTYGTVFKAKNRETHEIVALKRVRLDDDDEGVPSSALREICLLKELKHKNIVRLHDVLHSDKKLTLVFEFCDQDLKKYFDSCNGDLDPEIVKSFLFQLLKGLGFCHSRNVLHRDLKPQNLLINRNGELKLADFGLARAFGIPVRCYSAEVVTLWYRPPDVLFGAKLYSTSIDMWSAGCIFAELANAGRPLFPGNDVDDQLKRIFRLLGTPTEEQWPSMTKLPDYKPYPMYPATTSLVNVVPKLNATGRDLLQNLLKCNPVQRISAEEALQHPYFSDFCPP
Assay: Inhibition of human recombinant CDK5 using histone H1 as substrate and [gamma33P]-ATP after 20 mins by scintillation counting
metric: IC50

(Q) Indicate its recorded IC50; the compound in question is C/C(=C\C=C\C(C)CC/C=C(\C)C[C@H]1OC(=O)C(C)C1=O)CCCc1ccoc1 (stereo partly specified)
(A) < 25.1 µM

====

Target: Glycogen synthase kinase-3 alpha (Homo sapiens)
Sequence (P49840 whole entry): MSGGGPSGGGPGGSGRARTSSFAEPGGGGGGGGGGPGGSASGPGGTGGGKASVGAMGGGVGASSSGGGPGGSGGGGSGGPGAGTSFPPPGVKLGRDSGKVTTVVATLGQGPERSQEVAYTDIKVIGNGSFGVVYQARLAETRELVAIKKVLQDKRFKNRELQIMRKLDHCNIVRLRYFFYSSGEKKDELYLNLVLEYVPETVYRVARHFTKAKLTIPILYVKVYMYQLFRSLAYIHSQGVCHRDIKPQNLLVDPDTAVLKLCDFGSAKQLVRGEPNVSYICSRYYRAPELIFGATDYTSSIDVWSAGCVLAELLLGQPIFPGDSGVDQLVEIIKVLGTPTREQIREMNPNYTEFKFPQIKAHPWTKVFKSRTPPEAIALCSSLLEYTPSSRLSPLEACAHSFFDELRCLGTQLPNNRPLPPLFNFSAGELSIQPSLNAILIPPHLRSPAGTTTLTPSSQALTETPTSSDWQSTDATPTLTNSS
Assay: Inhibition of human recombinant GSK-3alpha using GS2 peptide as substrate and [gamma33P]-ATP after 12 mins by scintillation counting
metric: pIC50
The quantity pIC50 is defined as the negative base-10 logarithm of the molar concentration.

(Q) Indicate its recorded pIC50; the molecule in question is C/C(=C\C=C\C(C)CC/C=C(\C)C[C@H]1OC(=O)C(C)C1=O)CCCc1ccoc1 (stereo partly specified)
(A) 5.79

====

Target: Glycogen synthase kinase-3 beta (Homo sapiens)
Assay: Inhibition of human recombinant GSK-3beta using GS2 peptide as substrate and [gamma33P]-ATP after 30 mins by scintillation counting
Exercise: for every item that follows, state its recorded IC50.
Write the number in nM without appending the unit.

(Q) Indicate its recorded IC50; the compound in question is C/C(=C\C=C\C(C)CC/C=C(\C)C[C@H]1OC(=O)C(C)C1=O)CCCc1ccoc1 (stereo partly drawn)
(A) 1910

(Q) Indicate its recorded IC50; the compound in question is C/C(=C/CC[C@@H](C)C=C1OC(=O)C(C)C1=O)CCCc1coc(Cc2ccoc2)c1 (stereo partly drawn)
(A) 2340

====

Biological target: Glycogen synthase kinase-3 beta (Homo sapiens, UniProt P49841)
Sequence (P49841 whole entry): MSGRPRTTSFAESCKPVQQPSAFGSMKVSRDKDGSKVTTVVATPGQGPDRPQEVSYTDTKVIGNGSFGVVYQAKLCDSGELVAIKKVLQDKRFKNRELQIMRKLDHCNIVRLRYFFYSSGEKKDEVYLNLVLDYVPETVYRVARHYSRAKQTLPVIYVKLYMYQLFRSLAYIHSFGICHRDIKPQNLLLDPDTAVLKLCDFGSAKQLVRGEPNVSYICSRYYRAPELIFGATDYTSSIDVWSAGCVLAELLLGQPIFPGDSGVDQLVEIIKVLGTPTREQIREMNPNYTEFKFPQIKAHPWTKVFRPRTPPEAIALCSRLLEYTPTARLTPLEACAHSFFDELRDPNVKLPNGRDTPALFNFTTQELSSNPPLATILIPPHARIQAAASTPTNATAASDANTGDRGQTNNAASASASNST
Test: Inhibition of human recombinant GSK-3beta using GS2 peptide as substrate and [gamma33P]-ATP after 30 mins by scintillation counting
Exercise: for every item that follows, state its recorded pIC50.
The quantity pIC50 is defined as the negative base-10 logarithm of the molar concentration.

(Q) Indicate its recorded pIC50; the molecule in question is C/C(=C\C=C\C(C)CC/C=C(\C)C[C@H]1OC(=O)C(C)C1=O)CCCc1ccoc1 (stereo partly drawn) [PALINURIN]
(A) 5.72

(Q) Indicate its recorded pIC50; the molecule in question is C/C(=C/CC[C@@H](C)C=C1OC(=O)C(C)C1=O)CCCc1coc(Cc2ccoc2)c1 (stereo partly drawn) [Ircinin 2]
(A) 5.63

====

Target: UniProtKB P06493
Test: Inhibition of human recombinant CDK1 using histone H1 as substrate and [gamma33P]-ATP after 15 mins by scintillation counting
pIC50: −log10 of the molar value.
metric: pIC50

(Q) Indicate its recorded pIC50; the compound in question is C/C(=C\C=C\C(C)CC/C=C(\C)C[C@H]1OC(=O)C(C)C1=O)CCCc1ccoc1 (stereo partly specified)
(A) > 4.00

# credit: BindingDB's records for doi:10.1016/j.ejmech.2012.12.014
